System: DBP (rat serum diluted with a barbital acetate buffer)
Experiment: Binding ability to vitamin D-bound protein (DBP), competitive protein binding assay (CPBA), competition with 3H-25(OH)D3
Details: relative value of B/B0 50% value, 1,25(OH)2D3 taken to be 100; 4°C for 1 hour
PROPERTY: Binding ability to DBP

molecule="C[C@H](CCCC(C)(C)O)[C@H]1CC[C@H]2/C(=C/C=C3/C[C@@H](O)C[C@H](O)/C3=C\\F)CCC[C@]12C [Example 4(2), 19-fluoro-1α,25-dihydroxyvitamin D3]" tgt="DBP (rat serum diluted with a barbital acetate buffer)" endpoint_result=35.792
molecule="C=C1CC[C@H](O)C(F)(F)/C1=C/C=C1\\CCC[C@]2(C)[C@@H]([C@H](C)CCC(O)C(C)C)CC[C@@H]12 (some centres unmarked) [Example 5(1), 4,4-difluoro-24-hydroxyvitamin D3]" tgt="DBP (rat serum diluted with a barbital acetate buffer)" endpoint_result=16.633
molecule="CC(CO)CCC[C@@H](C)[C@H]1CC[C@H]2/C(=C/C=C3/C[C@@H](O)C[C@H](O)/C3=C\\F)CCC[C@]12C (stereo partly drawn) [Example 4(3), 19-fluoro-1α,26-dihydroxyvitamin D3]" tgt="DBP (rat serum diluted with a barbital acetate buffer)" endpoint_result=35.257
molecule="C=C1CC[C@H](O)C(F)(F)/C1=C/C=C1\\CCC[C@]2(C)[C@@H]([C@H](C)CCCC(C)CO)CC[C@@H]12 (some centres unmarked) [Example 5(3), 4,4-Difluoro-26-hydroxyvitamin D3]" tgt="DBP (rat serum diluted with a barbital acetate buffer)" endpoint_result=28.106
molecule="C=C1/C(=C\\C=C2/CCC[C@]3(C)[C@@H]([C@H](C)CCCC(C)(C)O)CC[C@@H]23)C(F)(F)[C@@H](O)C[C@@H]1O [Example 6(2), 4,4-difluoro-1α,25-dihydroxyvitamin D3]" tgt="DBP (rat serum diluted with a barbital acetate buffer)" endpoint_result=26.684

(a) CC(C)C(O)CC[C@@H](C)[C@H]1CC[C@H]2/C(=C/C=C3/C[C@@H](O)C[C@H](O)/C3=C\F)CCC[C@]12C (stereo partly drawn) [Example 4(1), 19-fluoro-1α,24-dihydroxyvitamin D3]
(b) C=C1/C(=C\C=C2/CCC[C@]3(C)[C@@H]([C@H](C)CCCC(C)CO)CC[C@@H]23)C[C@@H](O)C[C@@H]1O (stereo partly drawn) [Example 2, 1α,26-dihydroxyvitamin D3]
(c) C=C1C[C@@H](O)[C@H](O)C/C1=C/C=C1\CCC[C@]2(C)[C@@H]([C@H](C)CCCC(C)(C)O)CC[C@@H]12 [Example 1(1), 2α,25-dihydroxyvitamin D3]
Sequence the entries by Binding ability to DBP, beginning with the highest number. Returns: the labels arranged in the requested order.
c, b, a
(c: 11433.718, b: 168.529, a: 23.665)
